B1: Subtilisin-chymotrypsin inhibitor-2A, P01053 (parent)
chain: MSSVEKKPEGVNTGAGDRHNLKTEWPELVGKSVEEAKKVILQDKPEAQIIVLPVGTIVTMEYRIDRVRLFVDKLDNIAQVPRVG

variants of: B1; conditions: Hordeum vulgare; pH 6.25; 25 °C; GdnHCl; Fluorescence; MES 50 mM; structure 2CI2; whole UniProt chain shown
readout-name: denaturant midpoint (higher = more stable) (M)

{"variant-label": "S32A", "value-observed": 3.54}
{"variant-label": "E35N", "value-observed": 3.45}
{"variant-label": "E34N", "value-observed": 3.64}
{"variant-label": "E34A E35A", "value-observed": 3.61}
{"variant-label": "E35D", "value-observed": 3.62}
